Test target: UniProt:Q13255
Sequence (Q13255 whole entry): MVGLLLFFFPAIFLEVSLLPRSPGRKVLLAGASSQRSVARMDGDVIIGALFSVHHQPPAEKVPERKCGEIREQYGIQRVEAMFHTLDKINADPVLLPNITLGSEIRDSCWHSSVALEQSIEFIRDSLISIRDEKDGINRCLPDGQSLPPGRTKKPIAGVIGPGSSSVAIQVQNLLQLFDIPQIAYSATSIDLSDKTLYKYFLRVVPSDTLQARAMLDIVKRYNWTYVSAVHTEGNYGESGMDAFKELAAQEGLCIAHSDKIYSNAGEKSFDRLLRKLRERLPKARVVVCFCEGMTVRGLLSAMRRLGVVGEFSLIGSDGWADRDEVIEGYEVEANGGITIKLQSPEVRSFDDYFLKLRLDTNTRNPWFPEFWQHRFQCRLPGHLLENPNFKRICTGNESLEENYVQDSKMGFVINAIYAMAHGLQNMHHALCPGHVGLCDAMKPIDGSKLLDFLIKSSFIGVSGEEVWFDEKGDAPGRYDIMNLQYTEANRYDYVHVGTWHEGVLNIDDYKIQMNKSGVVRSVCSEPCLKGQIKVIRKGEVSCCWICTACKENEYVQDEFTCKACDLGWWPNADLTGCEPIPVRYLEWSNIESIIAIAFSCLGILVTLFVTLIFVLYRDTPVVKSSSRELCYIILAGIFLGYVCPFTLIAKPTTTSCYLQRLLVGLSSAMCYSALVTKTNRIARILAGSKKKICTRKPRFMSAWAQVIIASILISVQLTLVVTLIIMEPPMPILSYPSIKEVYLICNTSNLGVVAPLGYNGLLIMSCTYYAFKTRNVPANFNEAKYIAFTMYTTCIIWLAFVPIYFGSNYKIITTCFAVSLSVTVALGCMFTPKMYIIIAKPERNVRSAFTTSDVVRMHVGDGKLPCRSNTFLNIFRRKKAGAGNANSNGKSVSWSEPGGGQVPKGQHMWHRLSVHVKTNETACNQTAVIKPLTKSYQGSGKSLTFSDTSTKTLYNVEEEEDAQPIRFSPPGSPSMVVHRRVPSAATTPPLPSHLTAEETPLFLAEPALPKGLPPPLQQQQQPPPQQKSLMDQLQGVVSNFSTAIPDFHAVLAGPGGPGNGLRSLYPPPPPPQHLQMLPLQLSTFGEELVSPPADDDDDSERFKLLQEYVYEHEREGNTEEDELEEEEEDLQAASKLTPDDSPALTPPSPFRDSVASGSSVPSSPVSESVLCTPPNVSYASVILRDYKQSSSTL
Protocol: Antagonist activity at mGluR1
Format: functional
pEC50: −log10 of the molar value.
Measured endpoint: pEC50

pEC50 reported for this compound "Cn1c(CN2CCC(c3ccccc3F)CC2)nc2ccccc21" : < 4.80

====

Test target: Metabotropic glutamate receptor 5 (Homo sapiens)
Sequence (P41594 whole entry): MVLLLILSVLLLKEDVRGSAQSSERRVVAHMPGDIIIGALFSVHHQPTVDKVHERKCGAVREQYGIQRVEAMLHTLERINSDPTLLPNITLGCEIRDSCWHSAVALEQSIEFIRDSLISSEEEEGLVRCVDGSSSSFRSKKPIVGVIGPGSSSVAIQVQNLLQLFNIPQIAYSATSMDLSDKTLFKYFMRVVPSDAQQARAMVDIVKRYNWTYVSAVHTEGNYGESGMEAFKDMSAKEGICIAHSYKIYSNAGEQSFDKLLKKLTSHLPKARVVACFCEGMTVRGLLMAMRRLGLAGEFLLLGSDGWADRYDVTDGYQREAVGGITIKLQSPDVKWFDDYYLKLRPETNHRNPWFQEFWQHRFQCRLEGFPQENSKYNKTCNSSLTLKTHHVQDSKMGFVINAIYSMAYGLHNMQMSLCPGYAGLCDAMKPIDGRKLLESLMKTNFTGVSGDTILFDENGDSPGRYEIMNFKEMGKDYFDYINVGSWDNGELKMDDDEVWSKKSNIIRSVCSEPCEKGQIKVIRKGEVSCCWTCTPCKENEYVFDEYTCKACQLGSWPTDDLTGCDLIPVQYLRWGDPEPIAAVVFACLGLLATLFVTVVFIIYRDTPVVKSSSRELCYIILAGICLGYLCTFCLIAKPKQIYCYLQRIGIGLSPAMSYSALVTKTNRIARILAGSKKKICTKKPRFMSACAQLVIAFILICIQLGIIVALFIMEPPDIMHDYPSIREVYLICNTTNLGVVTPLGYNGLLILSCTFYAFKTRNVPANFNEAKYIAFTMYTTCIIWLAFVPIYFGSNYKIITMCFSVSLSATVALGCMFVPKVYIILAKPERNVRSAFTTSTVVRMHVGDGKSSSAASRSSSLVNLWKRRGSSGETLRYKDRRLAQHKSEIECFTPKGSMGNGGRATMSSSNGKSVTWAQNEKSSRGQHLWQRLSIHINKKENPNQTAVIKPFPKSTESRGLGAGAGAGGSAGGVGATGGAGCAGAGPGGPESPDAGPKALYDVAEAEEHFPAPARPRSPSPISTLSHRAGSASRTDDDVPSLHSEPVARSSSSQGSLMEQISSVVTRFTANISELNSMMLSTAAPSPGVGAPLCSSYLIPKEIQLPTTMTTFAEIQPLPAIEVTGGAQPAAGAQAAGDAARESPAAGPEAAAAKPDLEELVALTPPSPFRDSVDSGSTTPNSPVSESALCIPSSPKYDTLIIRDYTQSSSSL
Protocol: Antagonist activity at mGluR5
Format: functional
pEC50: −log10 of the molar value.
Measured endpoint: pEC50

Noted for "Cn1c(CN2CCC(c3ccccc3F)CC2)nc2ccccc21" : its pEC50 reads < 4.80

====

Exercise: for every item that follows, state its recorded pKi.
Test target: D(2) dopamine receptor (Homo sapiens, UniProt P14416)
Sequence (P14416 whole entry): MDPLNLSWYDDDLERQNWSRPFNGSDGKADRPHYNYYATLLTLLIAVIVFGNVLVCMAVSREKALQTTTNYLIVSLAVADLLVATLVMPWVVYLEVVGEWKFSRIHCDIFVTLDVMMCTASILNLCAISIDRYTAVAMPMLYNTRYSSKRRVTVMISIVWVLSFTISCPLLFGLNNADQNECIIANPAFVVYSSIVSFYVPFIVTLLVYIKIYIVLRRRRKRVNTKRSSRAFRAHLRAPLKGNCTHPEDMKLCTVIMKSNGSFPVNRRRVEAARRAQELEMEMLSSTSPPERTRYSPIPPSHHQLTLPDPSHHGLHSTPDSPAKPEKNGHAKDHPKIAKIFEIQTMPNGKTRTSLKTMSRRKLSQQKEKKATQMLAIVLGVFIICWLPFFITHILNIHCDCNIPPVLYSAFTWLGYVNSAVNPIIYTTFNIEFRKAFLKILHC
Protocol: Antagonist activity at human D2 receptor expressed in CHO cells co-expressing G0 by [35S]GTPgammaS binding assay
pKi: −log10 of the molar value.

For each listed entry, give its pKi.
1. Cn1c(CN2CCN(c3ccc(C(F)(F)F)cn3)CC2)nc2ccccc21
2. Cn1c(CN2CCN(c3nc4ccccc4s3)CC2)nc2ccccc21
3. Cn1c(CN2CCN(c3ccc(Cl)cc3)CC2)nc2ccccc21

Marked response:
1: < 5.00; 2: < 5.00; 3: < 5.00

Just for reference, ChEMBL document CHEMBL1153221 is where these values come from.
